Reference source: PubChem BioAssay

# assay-info: binders of probe aFST on microarray, primary screen, stem cell growth factor project, biochemical, small-molecule microarray, fluorescence 635/667 (AID 1086);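 also: score merges 667 nm fluorescence with signal-to-noise of each printed compound spot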
# experimental-context: higher = more signal
Classification field. Basis: composite z-score. Definitions: LOW: < 0.3; MEDIUM: ≥ 0.3 and < 1; HIGH: ≥ 1

Would you please look over these solved cases?
compound: C=CC[C@@]1(C(=O)N2CCCCC2)N=C(c2ccc(OCCCO)cc2)O[C@@H]1c1ccccc1
qualitative-label: MEDIUM

compound: COc1ccc([Si](C)(C)[C@H]2[C@H](CCn3cc(CCO)nn3)O[C@@]3(C(=O)N(Cc4ccc(N5C(=O)c6cccc7cccc5c67)cc4)c4ccccc43)[C@@H]2C)cc1
qualitative-label: MEDIUM

compound: C=CCOC(=O)[C@@H]1[C@H]2C(=O)O[C@H](c3ccccc3)[C@H](c3ccccc3)N2[C@H](c2ccc(OCCOC(=O)[C@H]3C[C@H]4C(=O)N[C@@H](CCCCNC(C)=O)C(=O)N4[C@H]3c3cccc(OCCO)c3)cc2)[C@@]12C(=O)Nc1ccc(I)cc12
qualitative-label: LOW

Bin this entry: CN(C)CCCNC(=O)[C@@]1(c2ccc([N+](=O)[O-])cc2)CC(=O)N(CC23CC4CC(CC(C4)C2)C3)[C@@H]1c1ccc(CO)cc1
HIGH

###

z-score reference
# assay-info: PSAC antagonists in infected red cells, primary screen, cell-based, P. falciparum Indochina, OD700, 1 h (AID 1154)
# experimental-context: P. falciparum Indochina infected RBC osmotic lysis, higher = more signal, called active from +8 up or from −8 down
Field format: numeric only.

molecule: CC1CC/C=C\[C@H]2OC34C=CCN(C(C)C)C(=O)[C@H]3N(CCCCCO)C(=O)[C@@H]4C2C(=O)O1 (stereo partly specified)
z-score: -0.54

molecule: C=C(C(=O)CC[C@H](OC(=O)c1cccnc1)c1cccc(OCCO)c1)C(C)C
z-score: 14.4

molecule: CC[C@H]1C2=C3C(CC[C@H]4C(OCc5ccc(F)cc5C(F)(F)F)OC[C@](C)([C@@H]34)N(C(=O)OC(C)(C)C)C2)C2COC(=O)OCC21 (stereo partly specified)
z-score: 1.28

molecule: CCOC(=O)[C@@H]1[C@@H]2C(=O)N(CC)C(=O)[C@@H]2C[C@@H]1Sc1ccccc1
z-score: 1.44

molecule: CN1C2C=C(CCCO)C(C3C(=O)N(C(N)=O)C(=O)C32)C1c1cccs1 (stereo unspecified)
z-score: 1.12

molecule: CN(C)C(=O)[C@@]1(Cc2ccccc2N=[N+]=[N-])COC(c2ccc(OCCCO)cc2)=N1
z-score: 26.3

Fill in the blank: the reported z-score of CCCN1C(=O)[C@]2(Cc3ccccc3)N=C(c3ccc(OCCCO)cc3)O[C@@H]2c2ccccc21 is ____.
34

Fill in the blank: the reported z-score of [N-]=[N+]=Nc1ccccc1C[C@@]1(C(=O)O)N=C(c2ccc(OCCCO)cc2)O[C@@H]1c1ccccc1 is ____.
17.7

Fill in the blank: the reported z-score of C=CCC(OC(C)=O)[C@@H]1[C@@H](N(Cc2ccc(-c3ccccc3)cc2)C(=O)c2cccc3ccccc23)c2cc(OCCCO)ccc2N1C(=O)Cc1ccc2ccccc2c1 (stereo partly specified) is ____.
1.14

Fill in the blank: the reported z-score of C[C@]1(C(=O)NCCN2CCOCC2)c2ccccc2C(=O)N(Cc2ccc(OC(F)(F)F)cc2)[C@H]1c1ccc(CO)cc1 is ____.
6.9

Fill in the blank: the reported z-score of [N-]=[N+]=Nc1ccccc1[C@H]1OC(c2ccc(OCCCO)cc2)=N[C@@]1(CCS(=O)(=O)c1ccccc1)C(=O)N1CCCCC1 is ____.
29.8

Fill in the blank: the reported z-score of CC(C)(C)OC(=O)CC[C@]1(C(=O)N2CCOCC2)N=C(c2ccc(OCCCO)cc2)O[C@H]1c1ccccc1 is ____.
22.9

Fill in the blank: the reported z-score of O=C(O)[C@H]1C[C@H]2C(=O)N3CCC[C@H]3C(=O)N2[C@H]1c1cccc(OCCO)c1 is ____.
6.65
